- System: UACC-62
- ASSAY: NCI-60 SRB screen
- PROTOCOL_CONDITIONS: Homo sapiens, UACC-62, 48 h
The threshold is 1000 nM. Values of GI50 beneath it are tagged satisfied; values meeting or exceeding it are tagged not satisfied.

O=C(O)CCCCCN1C(=O)/C(=C/C=C/c2ccc([N+](=O)[O-])o2)SC1=S [14b] = satisfied

GI50 strictly < 1000 nM for this molecule? O=C(O)CCCN1C(=O)/C(=C/C=C/c2ccc([N+](=O)[O-])o2)SC1=S [13b]
satisfied

GI50 strictly < 1000 nM for this molecule? CC(C)C(C(=O)O)N1C(=O)/C(=C/C=C/c2ccc([N+](=O)[O-])o2)SC1=S (stereo not shown)
satisfied

GI50 strictly < 1000 nM for this molecule? CCCCC(C(=O)O)N1C(=O)/C(=C/C=C/c2ccc([N+](=O)[O-])o2)SC1=S (stereo not shown)
not satisfied

GI50 strictly < 1000 nM for this molecule? CCCC(C(=O)O)N1C(=O)/C(=C/C=C/c2ccc([N+](=O)[O-])o2)SC1=S (stereo not shown)
not satisfied

GI50 strictly < 1000 nM for this molecule? O=C(O)CCN1C(=O)/C(=C/C=C/c2ccc([N+](=O)[O-])o2)SC1=S [12b]
satisfied

GI50 strictly < 1000 nM for this molecule? O=C(O)C(c1ccccc1)N1C(=O)/C(=C/C=C/c2ccc([N+](=O)[O-])o2)SC1=S (stereo not shown)
not satisfied

Reference source: paper PMC12655351
